List of PBMC TC50 values.
# Tested on: PBMCs
# RUN_DESCRIPTION: PBMC cytotoxicity
# Assay type: cell-based, human
# COND: six days, MTS, concentration that reduces cell viability by 50%
Marks after values point to notes of the source that are not given here.

Worked set:
- COMPOUND: "COc1ccc(-c2csc(C3=C(C)NC(=O)NC3c3cccc(O)c3)n2)cc1 (stereo not shown)"
  PBMC TC50: "91 ^e μM"
- COMPOUND: "CC1=C(c2nc(-c3ccc(C#N)cc3)cs2)[C@@H](c2cccc(O)c2)NC(=O)N1 [(R)-1i]"
  PBMC TC50: ">100 µM"
- COMPOUND: "CC1=C(c2nc(-c3ccc(C#N)cc3)cs2)C(c2cccc(O)c2)NC(=O)N1 (stereo not shown)"
  PBMC TC50: "84 ± 8.2 µM"

The record that follows has no PBMC TC50 shown yet.
Report PBMC TC50 for CC1=C(c2nc(-c3ccc(C#N)cc3)cs2)[C@H](c2cccc(O)c2)NC(=O)N1 [(S)-1i] please.
>100 µM

---

# Tested on: MAGI-CCR5 cells
# RUN_DESCRIPTION: MAGI-CCR5 parallel cytotoxicity testing
# Format: cell-based
# COND: MAGI-CCR5 cells, printed in the NL4-3 line of Tables 7 and 10
List of TC50 (NL4-3 row) values.

Worked set:
- MOLECULE: "CC1=C(c2nc(-c3ccc(C#N)cc3)cs2)C(c2ccc(Br)nc2)NC(=O)N1 (stereo not shown) [1am]"
  TC50 (NL4-3 row): ">100 µM"
- MOLECULE: "COc1ccc(C2NC(=O)NC(C)=C2c2nc(-c3ccc(C#N)cc3)cs2)cc1 (stereo not shown) [1m]"
  TC50 (NL4-3 row): "5.5 ± 1.0 µM"
- MOLECULE: "COc1ccc(C2NC(=O)NC(C)=C2c2nc(-c3ccc(C#N)cc3)cs2)cn1 (stereo not shown) [1an]"
  TC50 (NL4-3 row): ">100 µM"
- MOLECULE: "CC1=C(c2nc(-c3ccc(C#N)cc3)cs2)C(c2ccc(C(F)(F)F)nc2)NC(=O)N1 (stereo not shown) [1ar]"
  TC50 (NL4-3 row): ">100 µM"
- MOLECULE: "CC1=C(c2nc(-c3ccc(C#N)cc3)cs2)C(c2cc3ccccc3n2C)NC(=O)N1 (stereo not shown) [1ad]"
  TC50 (NL4-3 row): ">100 µM"
- MOLECULE: "CC1=C(c2nc(-c3ccc(C#N)cc3)cs2)C(c2ccc(O)cc2)NC(=O)N1 (stereo not shown) [1l]"
  TC50 (NL4-3 row): "46 ± 6.1 µM"

The record that follows has no TC50 (NL4-3 row) shown yet.
Report TC50 (NL4-3 row) for CC1=C(c2nc(-c3ccc(C#N)cc3)cs2)C(c2ccc(F)nc2)NC(=O)N1 (stereo not shown) [1ae] please.
>100 µM

---

# RUN_DESCRIPTION: Parallel artificial membrane permeation assay
# COND: PAMPA, pH 7.2
PROPERTY_MEASURED: Papp at 100 μM (×10⁻⁶ cm/s)
Write the value in ×10⁻⁶ cm/s as a bare number.

- COMPOUND: "CC1=C(c2nc(-c3ccc(C#N)cc3)cs2)C(c2ccc(F)nc2)NC(=O)N1 (centres unmarked)"
  Papp at 100 μM / ×10⁻⁶ cm/s: 0.575

Report Papp at 100 μM for CC1=C(c2nc(-c3ccc(C#N)cc3)cs2)C(c2ccc(O)cc2)NC(=O)N1 (centres unmarked) please.
0.0151

Report Papp at 100 μM for CC1=C(c2nc(-c3ccc(C#N)cc3)cs2)C(c2ccc(Cl)nc2)NC(=O)N1 (centres unmarked) please.
0.0398

Report Papp at 100 μM for CC1=C(c2nc(-c3ccc(C#N)cc3)cs2)C(c2ccc(Br)nc2)NC(=O)N1 (centres unmarked) please.
0.0151

---

# RUN_DESCRIPTION: Parallel artificial membrane permeation assay
# COND: PAMPA, pH 7.2
PROPERTY_MEASURED: Papp at 100 μM (×10⁻⁶ cm/s)
Write the value in ×10⁻⁶ cm/s as a bare number.

- MOLECULE: "CC1=C(c2nc(-c3ccc(C#N)cc3)cs2)C(c2cc3ccccc3n2C)NC(=O)N1 (stereo not shown)"
  RECORDED_VALUE: 0.0891

Report Papp at 100 μM for COc1ccc(C2NC(=O)NC(C)=C2c2nc(-c3ccc(C#N)cc3)cs2)cc1 (stereo not shown) please.
0.0776

Report Papp at 100 μM for COc1ccc(C2NC(=O)NC(C)=C2c2nc(-c3ccc(C#N)cc3)cs2)cn1 (stereo not shown) please.
0.0562

Report Papp at 100 μM for CC1=C(c2nc(-c3ccc(C#N)cc3)cs2)C(c2cccc(O)c2)NC(=O)N1 (stereo not shown) please.
0.0145
